Test system: PPARg:RXRa 30nM:10nM, anti-RXR (NR concentration 30 nM, RXRa partner concentration 10 nM)
Assay: PBM binding z-score (relative to random genomic background probes); higher = stronger binding; sequences stand for … in GC…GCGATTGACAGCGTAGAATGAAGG
In this section we review reported PBM binding z-score values for a set of sequences.

{"MONOMER_SEQUENCE": "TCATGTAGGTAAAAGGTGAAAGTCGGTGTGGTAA", "TARGET": "PPARg:RXRa 30nM:10nM, anti-RXR (NR concentration 30 nM, RXRa partner concentration 10 nM)", "PBM binding z-score": 8.8}
{"MONOMER_SEQUENCE": "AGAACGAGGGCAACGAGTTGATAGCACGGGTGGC", "TARGET": "PPARg:RXRa 30nM:10nM, anti-RXR (NR concentration 30 nM, RXRa partner concentration 10 nM)", "PBM binding z-score": 0.0508}
{"MONOMER_SEQUENCE": "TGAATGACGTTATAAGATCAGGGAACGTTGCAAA", "TARGET": "PPARg:RXRa 30nM:10nM, anti-RXR (NR concentration 30 nM, RXRa partner concentration 10 nM)", "PBM binding z-score": 0.775}
{"MONOMER_SEQUENCE": "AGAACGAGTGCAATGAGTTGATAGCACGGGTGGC", "TARGET": "PPARg:RXRa 30nM:10nM, anti-RXR (NR concentration 30 nM, RXRa partner concentration 10 nM)", "PBM binding z-score": -0.239}
{"MONOMER_SEQUENCE": "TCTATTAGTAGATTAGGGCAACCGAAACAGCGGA", "TARGET": "PPARg:RXRa 30nM:10nM, anti-RXR (NR concentration 30 nM, RXRa partner concentration 10 nM)", "PBM binding z-score": 3.45}
{"MONOMER_SEQUENCE": "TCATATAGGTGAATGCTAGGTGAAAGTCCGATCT", "TARGET": "PPARg:RXRa 30nM:10nM, anti-RXR (NR concentration 30 nM, RXRa partner concentration 10 nM)", "PBM binding z-score": 3.54}
{"MONOMER_SEQUENCE": "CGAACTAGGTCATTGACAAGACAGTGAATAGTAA", "TARGET": "PPARg:RXRa 30nM:10nM, anti-RXR (NR concentration 30 nM, RXRa partner concentration 10 nM)", "PBM binding z-score": 3.72}
{"MONOMER_SEQUENCE": "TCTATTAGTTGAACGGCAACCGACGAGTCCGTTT", "TARGET": "PPARg:RXRa 30nM:10nM, anti-RXR (NR concentration 30 nM, RXRa partner concentration 10 nM)", "PBM binding z-score": 3.63}
{"MONOMER_SEQUENCE": "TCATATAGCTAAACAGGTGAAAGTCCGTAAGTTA", "TARGET": "PPARg:RXRa 30nM:10nM, anti-RXR (NR concentration 30 nM, RXRa partner concentration 10 nM)", "PBM binding z-score": 2.64}
{"MONOMER_SEQUENCE": "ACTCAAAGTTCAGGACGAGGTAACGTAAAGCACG", "TARGET": "PPARg:RXRa 30nM:10nM, anti-RXR (NR concentration 30 nM, RXRa partner concentration 10 nM)", "PBM binding z-score": 0.747}
{"MONOMER_SEQUENCE": "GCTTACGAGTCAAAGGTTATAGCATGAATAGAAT", "TARGET": "PPARg:RXRa 30nM:10nM, anti-RXR (NR concentration 30 nM, RXRa partner concentration 10 nM)", "PBM binding z-score": 4.17}
{"MONOMER_SEQUENCE": "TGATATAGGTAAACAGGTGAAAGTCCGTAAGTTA", "TARGET": "PPARg:RXRa 30nM:10nM, anti-RXR (NR concentration 30 nM, RXRa partner concentration 10 nM)", "PBM binding z-score": 1.65}
